Please provide measured EC50 for the entries that follow.
- study-system: human QRFPR (hQRFPR) (Homo sapiens)
- Construct: expressed in transfected cells; host or cells: CHO cells, stably transfected with hQRFPR (G418 selection) and Gα16 (hygromycin B selection)
- Sequence (Q96P65 1-431): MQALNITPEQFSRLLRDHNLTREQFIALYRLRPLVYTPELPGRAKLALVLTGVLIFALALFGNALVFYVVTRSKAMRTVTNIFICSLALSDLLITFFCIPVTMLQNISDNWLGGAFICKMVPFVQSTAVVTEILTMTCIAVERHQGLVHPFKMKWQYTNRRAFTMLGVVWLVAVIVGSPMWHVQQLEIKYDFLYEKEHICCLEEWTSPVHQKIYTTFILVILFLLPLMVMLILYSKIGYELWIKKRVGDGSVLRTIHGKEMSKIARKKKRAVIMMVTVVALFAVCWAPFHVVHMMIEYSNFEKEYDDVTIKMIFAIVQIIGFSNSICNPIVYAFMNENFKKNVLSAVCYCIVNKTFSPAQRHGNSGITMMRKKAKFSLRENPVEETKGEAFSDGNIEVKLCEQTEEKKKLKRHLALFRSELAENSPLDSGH
- protocol-summary: Calcium mobilization assay, agonist mode ([Ca2+]i in Gα16-hQRFPR-transfected CHO cells)
- Type: cell-based
- run-conditions: [Ca2+]i mobilization in Gα16-hQRFPR-transfected CHO cells; mean of at least three independent experiments performed in triplicate; read-out: EC50
Starred links: 1 amine or outer side, 2 acyl side, 3 side chain; linkers in the order of their positions; H or OH if unused. Positions of bridges follow the written chain, without caps; N, C: chain ends. Non-standard residues stand in square brackets, D forms with d. Residues, ends and D or L forms follow the SMILES beside them. *: point of attachment. Ahppa(3S,4S) = O=C(C[C@H](O)[C@H](Cc1ccccc1)N[*:1])[*:2]; X7 = O=C(C(c1ccc(C(F)(F)F)cc1)N1CCNCC1)*; X9 = NC(=O)C[C@H](O)[C@H](Cc1ccccc1)N*; 2Nal = N[C@@H](Cc1ccc2ccccc2c1)C(=O)O; X5 = COc1ccc(C(C(=O)*)N2CCNCC2)cc1; X3 = O=C(C(c1cccc(F)c1)N1CCNCC1)*; X2 = O=C(C(c1ccccc1)N1CCNCC1)*; Nphe = O=C(O)CNCc1ccccc1

Challenge: Item N=C(N)NCCC[C@H](NC(=O)[C@@H]1CSSC[C@H](NC(=O)CNC(=O)CN)C(=O)N[C@@H](CO)C(=O)N1)C(=O)N[C@@H](Cc1ccccc1)C(N)=O [Compound 46, [Cys^22,24]26RFa(20–26)] (H-GGCSCRF-NH2; disulfide 3-5) has what recorded EC50?
Response given: > 10 µM

Challenge: Then COc1ccc(C(C(=O)N[C@@H](CO)C(=O)N[C@@H](Cc2ccccc2)C(=O)N[C@@H](CCCNC(=N)N)C(=O)N[C@@H](Cc2ccccc2)C(N)=O)N2CCNCC2)cc1 (stereo partly drawn) [Compound 59, [Cmpi(4-MeOPhg)^22]26RFa(22–26)] (X5-SFRF-NH2) ?
Response given: > 10 µM

Challenge: Then N=C(N)NCCC[C@H](NC(=O)[C@H](Cc1ccccc1)NC(=O)[C@H](CO)NC(=O)C(c1ccccc1)N1CCNCC1)C(=O)N[C@@H](Cc1ccccc1)C(N)=O (stereo partly drawn) [Compound 49, [Cmpi(Phg)^22]26RFa(22–26)] (X2-SFRF-NH2) ?
Response given: > 10 µM

Challenge: Then N=C(N)NCCC[C@H](NC(=O)C[C@H](O)[C@H](Cc1ccccc1)NC(=O)[C@H](CO)NC(=O)[C@H](Cc1ccccc1)NC(=O)CNC(=O)CN)C(=O)N[C@@H](Cc1ccccc1)C(N)=O [Compound 35, [AHPPA^24]26RFa(20–26)] (H-GGFS[Ahppa(3S,4S)]RF-NH2) ?
Response given: > 10 µM

Challenge: Then N=C(N)NCCC[C@H](NC(=O)[C@H](Cc1ccccc1)NC(=O)[C@H](CO)NC(=O)[C@H](Cc1ccccc1)NC(=O)CNC(=O)CN)C(=O)N[C@@H](Cc1ccc2ccccc2c1)C(N)=O [Compound 7, [2Nal^26]26RFa(20–26)] (H-GGFSFR[2Nal]-NH2) ?
Response given: 3.79 µM

Challenge: Then N=C(N)NCCC[C@H](NC(=O)[C@H](Cc1ccccc1)NC(=O)[C@H](CO)NC(=O)C(c1ccc(C(F)(F)F)cc1)N1CCNCC1)C(=O)N[C@@H](Cc1ccccc1)C(N)=O (stereo partly drawn) [Compound 58, [Cmpi(4-TfmPhg)^22]26RFa(22–26)] (X7-SFRF-NH2) ?
Response given: > 10 µM

Challenge: Then N=C(N)NCCC[C@H](NC(=O)[C@H](Cc1ccccc1)NC(=O)[C@H](CO)NC(=O)CN(Cc1ccccc1)C(=O)CNC(=O)CN)C(=O)N[C@@H](Cc1ccccc1)C(N)=O [Compound 31, [NPhe^22]26RFa(20–26)] (H-GG[Nphe]SFRF-NH2) ?
Response given: 0.578 µM

Challenge: Then N=C(N)NCCC[C@H](NC(=O)[C@H](Cc1ccccc1)NC(=O)[C@H](CO)NC(=O)C(c1cccc(F)c1)N1CCNCC1)C(=O)N[C@@H](Cc1ccccc1)C(N)=O (stereo partly drawn) [Compound 53, [Cmpi(3-FPhg)^22]26RFa(22–26)] (X3-SFRF-NH2) ?
Response given: 3.56 µM

Challenge: Then N=C(N)NCCC[C@H](NC(=O)[C@H](Cc1ccccc1)NC(=O)[C@H](CO)NC(=O)[C@H](Cc1ccccc1)NC(=O)CNC(=O)CN)C(=O)N[C@@H](Cc1ccccc1)[C@@H](O)CC(N)=O [Compound 36, [AHPPA^26]26RFa(20–26)] (H-GGFSFR-X9) ?
Response given: > 10 µM

Source: paper PMC8307317
